# protocol_summary: Absorption characteristics: transmission spectrum of near-infrared absorbing layer of NIR filter (UV-visible spectrophotometer)
# Format: physicochemical
# experimental_context: transparent resin acrylic resin BR50, nd(B) 1.56, film thickness 2.3 μm
reported_endpoint: λc (nm)

| molecule | unit_tag | reported_result |
| --- | --- | --- |
| Cc1ccc(C)c(OCCCC(C)(C)C(=O)Nc2cc3c(cc2C2=C([O-])C(=c4cc5c(cc4NC(=O)C(C)(C)CCCOc4cc(C)ccc4C)=[N+](C)C(C)C5(C)C)C2=O)C(C)(C)C(C)N3C)c1 (centres unmarked) | nm | 612 |
| CCCC(C)(C)C(=O)Nc1cc2c(cc1C1=C([O-])C(=c3cc4c(cc3NC(=O)C(C)(C)CCC)=[N+](C)C(C)C4(C)C)C1=O)C(C)(C)C(C)N2C (centres unmarked) | nm | 613 |
| CCCC(CCC)C(=O)Nc1cc2c(cc1C1=C([O-])C(=c3cc4c(cc3NC(=O)C(CCC)CCC)=[N+](C)C(C)C4(C)C)C1=O)C(C)(C)C(C)N2C (centres unmarked) | nm | 618 |
| CCCCCCCC(=O)Nc1cc2c(cc1C1=C([O-])C(=c3cc4c(cc3NC(=O)CCCCCCC)=[N+](C)C(C)C4(C)C)C1=O)C(C)(C)C(C)N2C (centres unmarked) [Example A11-24, reference compound] | nm | 603 |
| CCCCC(CC)C(=O)Nc1cc2c(cc1C1=C([O-])C(=c3cc4c(cc3NC(=O)C(CC)CCCC)=[N+](C)C(C)C4(C)C)C1=O)C(C)(C)C(C)N2C (centres unmarked) | nm | 617 |

###

# protocol_summary: Absorption characteristics: transmission spectrum of near-infrared absorbing layer of NIR filter (UV-visible spectrophotometer)
# Format: physicochemical
# experimental_context: transparent resin acrylic resin BR50, nd(B) 1.56, film thickness 2.3 μm
reported_endpoint: Is value (nd(B)×(λa-λc))

| compound | reported_result |
| --- | --- |
| CCCCC(CC)C(=O)Nc1cc2c(cc1C1=C([O-])C(=c3cc4c(cc3NC(=O)C(CC)CCCC)=[N+](C)C(C)C4(C)C)C1=O)C(C)(C)C(C)N2C (stereo not drawn) [Example A11-2] | 112.4 |
| CC(CCC(C(=O)Nc1cc2c(cc1C1=C([O-])C(=c3cc4c(cc3NC(=O)C(CCC(C)CC(C)(C)C)C(C)CC(C)(C)C)=[N+](C)C(C)C4(C)C)C1=O)C(C)(C)C(C)N2C)C(C)CC(C)(C)C)CC(C)(C)C (stereo not drawn) [Example A11-4] | 110.9 |
| CCCCCCCC(=O)Nc1cc2c(cc1C1=C([O-])C(=c3cc4c(cc3NC(=O)CCCCCCC)=[N+](C)C(C)C4(C)C)C1=O)C(C)(C)C(C)N2C (stereo not drawn) [Example A11-24, reference compound] | 132.7 |
| CCCCC(CC)C(=O)Nc1cc2c(cc1C1=C([O-])C(=c3cc4c(cc3NC(=O)C(CC)CCCC)=[N+](C(C)C)C(C)C4(C)C)C1=O)C(C)(C)C(C)N2C(C)C (stereo not drawn) [Example A11-7] | 101.5 |
| CCCCCCCCCCCC(=O)Nc1cc2c(cc1C1=C([O-])C(=c3cc4c(cc3NC(=O)CCCCCCCCCCC)=[N+](C)C(C)C4(C)C)C1=O)C(C)(C)C(C)N2C (stereo not drawn) [Example A11-25, reference compound] | 129.6 |
| CCCC(C)(C)C(=O)Nc1cc2c(cc1C1=C([O-])C(=c3cc4c(cc3NC(=O)C(C)(C)CCC)=[N+](C)C(C)C4(C)C)C1=O)C(C)(C)C(C)N2C (stereo not drawn) [Example A11-14] | 110.9 |
| Cc1ccc(C)c(OCCCC(C)(C)C(=O)Nc2cc3c(cc2C2=C([O-])C(=c4cc5c(cc4NC(=O)C(C)(C)CCCOc4cc(C)ccc4C)=[N+](C)C(C)C5(C)C)C2=O)C(C)(C)C(C)N3C)c1 (stereo not drawn) [Example A11-13] | 110.9 |
| CC(=O)Nc1cc2c(cc1C1=C([O-])C(=c3cc4c(cc3NC(C)=O)=[N+](C)C(C)C4(C)C)C1=O)C(C)(C)C(C)N2C (stereo not drawn) [Example A11-20, reference compound] | 142.1 |
| CCCC(CCC)C(=O)Nc1cc2c(cc1C1=C([O-])C(=c3cc4c(cc3NC(=O)C(CCC)CCC)=[N+](C)C(C)C4(C)C)C1=O)C(C)(C)C(C)N2C (stereo not drawn) [Example A11-1] | 110.9 |
